The reported numbers originate from ChEMBL document CHEMBL1938275.

# System: Staphylococcus aureus
# experimental.protocol: Antibacterial activity against methicillin-resistant Staphylococcus aureus isolate 1 after 24 hrs by broth microdilution method
# Format: functional
# experimental.setup: isolate 1, 24 h
recorded.metric: MIC (µg/mL)

1) CN[C@H](CC(C)C)C(=O)N[C@H]1C(=O)N[C@@H](CC(N)=O)C(=O)N[C@H]2C(=O)N[C@H]3C(=O)N[C@H](C(=O)N[C@H](C(=O)O)c4cc(O)cc(O)c4-c4cc3ccc4O)[C@H](O)c3ccc(c(Cl)c3)Oc3cc2cc(c3O[C@@H]2O[C@H](CO)[C@@H](O)[C@H](O)[C@H]2O[C@H]2C[C@](C)(N)[C@H](O)[C@H](C)O2)Oc2ccc(cc2Cl)[C@H]1O    0.8

---

In this section, each of the molecules is paired with its reported MIC.
# Test system: Staphylococcus aureus
# experimental.protocol: Antibacterial activity against methicillin-resistant Staphylococcus aureus isolate 3 after 24 hrs by broth microdilution method
# Assay type: functional
# experimental.setup: isolate 3, 24 h
recorded.metric: MIC (µg/mL)

1) CN[C@H](CC(C)C)C(=O)N[C@H]1C(=O)N[C@@H](CC(N)=O)C(=O)N[C@H]2C(=O)N[C@H]3C(=O)N[C@H](C(=O)N[C@H](C(=O)O)c4cc(O)cc(O)c4-c4cc3ccc4O)[C@H](O)c3ccc(c(Cl)c3)Oc3cc2cc(c3O[C@@H]2O[C@H](CO)[C@@H](O)[C@H](O)[C@H]2O[C@H]2C[C@](C)(N)[C@H](O)[C@H](C)O2)Oc2ccc(cc2Cl)[C@H]1O    0.8
2) CC(C)=CCc1c(O)ccc(C(=O)/C=C/c2ccc(O)cc2)c1O    62.5
3) O=C(/C=C/c1ccc(O)cc1)c1ccc(O)cc1O    62.5
4) O=C(CCc1ccc(O)cc1)c1c(O)cc(O)cc1O    250
5) O=C(N/N=C/c1ccc([N+](=O)[O-])o1)c1ccccc1    62.5
6) COc1cc(C(=O)N/N=C/c2ccc([N+](=O)[O-])s2)cc(OC)c1OC    125

---

# Tested on: Staphylococcus aureus
# experimental.protocol: Antibacterial activity against methicillin-resistant Staphylococcus aureus isolate 1 after 24 hrs by broth microdilution method
# Assay type: functional
# experimental.setup: isolate 1, 24 h
recorded.metric: MIC (µg/mL)

1) O=C(CCc1ccc(O)cc1)c1c(O)cc(O)cc1O [PHLORETIN]    250
2) CC(C)=CCc1c(O)ccc(C(=O)/C=C/c2ccc(O)cc2)c1O [ISOBAVACHALCONE]    62.5
3) COc1cc(C(=O)N/N=C/c2ccc([N+](=O)[O-])s2)cc(OC)c1OC    125
4) O=C(N/N=C/c1ccc([N+](=O)[O-])o1)c1ccccc1    125
5) O=C(/C=C/c1ccc(O)cc1)c1ccc(O)cc1O [ISOLIQUIRITIGENIN]    62.5

---

# experimental.protocol: Cytotoxicity against african green monkey Vero cells assessed as cell death after 72 hrs by MTT assay
# Assay type: cell-based
# experimental.setup: chlorocebus sabaeus
recorded.metric: CC50 at 72 h (µg/mL)

1. CC(C)=CCc1c(O)ccc(C(=O)/C=C/c2ccc(O)cc2)c1O [ISOBAVACHALCONE]    727
2. O=C(/C=C/c1ccc(O)cc1)c1ccc(O)cc1O [ISOLIQUIRITIGENIN]    464
3. O=C(N/N=C/c1ccc([N+](=O)[O-])o1)c1ccccc1    489
4. COc1cc(C(=O)N/N=C/c2ccc([N+](=O)[O-])s2)cc(OC)c1OC    857
5. O=C(CCc1ccc(O)cc1)c1c(O)cc(O)cc1O [PHLORETIN]    735
